Listed compounds paired with reported MCC at 72 h
# assay name: Cytotoxicity against MDCK cells assessed as alteration in cell morphology after 3 days by microscopic method
# Assay type: cell-based, Canis lupus familiaris
# condition context: dog
Respond with the bare value in µM.

| compound | measure name | obs value |
| --- | --- | --- |
| CC(=O)N[C@H]1[C@H](O[C@@H]2c3ccc(c(Cl)c3)Oc3cc4cc(c3O)Oc3ccc(cc3Cl)C[C@H]3NC(=O)[C@H](NS(=O)(=O)c5ccccc5)c5ccc(O)c(c5)Oc5cc(O)cc(c5)[C@H](NC3=O)C(=O)N[C@H]4C(O)N[C@H]3C(=O)N[C@H]2C(=O)N[C@@H](C(=O)O)c2cc(O)cc(O)c2-c2cc3ccc2O)O[C@H](CO)[C@@H](O)[C@@H]1O (some centres undefined) | MCC at 72 h | 100 |

From here, focus on the item given below.
Req: # MCC at 72 h lookup, item CCCCCCCCSC1=C(SCCCCCCCC)C(=O)N([C@H]2C(=O)N[C@@H]3Cc4ccc(c(Cl)c4)Oc4cc5cc(c4O)Oc4ccc(cc4Cl)[C@@H](O[C@@H]4O[C@H](CO)[C@@H](O)[C@H](O)[C@H]4NC(C)=O)[C@H]4NC(=O)[C@H](NC(O)[C@@H]5NC(=O)[C@@H](NC3=O)c3cc(O)cc(c3)Oc3cc2ccc3O)c2ccc(O)c(c2)-c2c(O)cc(O)cc2[C@H](C(=O)O)NC4=O)C1=O (some centres undefined)
Resp: 20

###

# Tested on: H3N2 subtype
# assay name: Antiviral activity against Influenza A virus A/HK/7/87(H3N2) infected in MDCK cells assessed as reduction in virus-induced cytopathic effect after 3 days by microscopic method
# Format: functional, organism-based
# condition context: A/Hong Kong/7/1987(H3N2), 72 h
Listed compounds paired with reported pEC50
Give only the number. pEC50 is defined as minus log10 of concentration in molar units.

| compound | assay target | pEC50 |
| --- | --- | --- |
| CC(=O)N[C@H]1[C@H](O[C@@H]2c3ccc(c(Cl)c3)Oc3cc4cc(c3O)Oc3ccc(cc3Cl)C[C@H]3NC(=O)[C@H](n5cc(COC[C@H]6O[C@@H]7OC(C)(C)O[C@@H]7[C@H]7OC(C)(C)O[C@H]76)nn5)c5ccc(O)c(c5)Oc5cc(O)cc(c5)[C@H](NC3=O)C(=O)N[C@H]4C(O)N[C@H]3C(=O)N[C@H]2C(=O)N[C@@H](C(=O)O)c2cc(O)cc(O)c2-c2cc3ccc2O)O[C@H](CO)[C@@H](O)[C@@H]1O (some centres not stated) | H3N2 subtype | 4.41 |

From here, focus on the item given below.
Req: # pEC50 lookup, item CC(=O)N[C@H]1[C@H](O[C@@H]2c3ccc(c(Cl)c3)Oc3cc4cc(c3O)Oc3ccc(cc3Cl)C[C@H]3NC(=O)[C@H](n5cc(COc6cccc7ccccc67)nn5)c5ccc(O)c(c5)Oc5cc(O)cc(c5)[C@H](NC3=O)C(=O)N[C@H]4C(O)N[C@H]3C(=O)N[C@H]2C(=O)N[C@@H](C(=O)O)c2cc(O)cc(O)c2-c2cc3ccc2O)O[C@H](CO)[C@@H](O)[C@@H]1O (some centres not stated)
Resp: 4.82

###

# System: H3N2 subtype
# assay name: Antiviral activity against Influenza A virus A/HK/7/87(H3N2) infected in MDCK cells assessed as reduction in virus-induced cytopathic effect after 3 days by microscopic method
# Type: functional, organism-based
# condition context: A/Hong Kong/7/1987(H3N2), 72 h
measure name: pEC50
Give only the number. pEC50 is defined as minus log10 of concentration in molar units.

Req: # pEC50 lookup, item CC(=O)N[C@H]1[C@H](O[C@@H]2c3ccc(c(Cl)c3)Oc3cc4cc(c3O)Oc3ccc(cc3Cl)C[C@H]3NC(=O)[C@H](NS(=O)(=O)c5cccc6c(N(C)C)cccc56)c5ccc(O)c(c5)Oc5cc(O)cc(c5)[C@H](NC3=O)C(=O)N[C@H]4C(O)N[C@H]3C(=O)N[C@H]2C(=O)N[C@@H](C(=O)O)c2cc(O)cc(O)c2-c2cc3ccc2O)O[C@H](CO)[C@@H](O)[C@@H]1O (some centres not stated)
Resp: 5.08

###

# assay name: Cytotoxicity against HEL299 cells assessed as changes in cell morphology after 5 days by microscopic method
# Assay type: cell-based, HEL 299
# condition context: human
measure name: MCC at 120 h

Some solved entries appear below for comparison.
| compound | obs value |
| --- | --- |
| CCCCSC1=C(SCCCC)C(=O)N(Cc2cn(C3C(=O)N[C@@H]4Cc5ccc(c(Cl)c5)Oc5cc6cc(c5O)Oc5ccc(cc5Cl)[C@@H](O[C@@H]5O[C@H](CO)[C@@H](O)[C@H](O)[C@H]5NC(C)=O)[C@H]5NC(=O)[C@H](NC(O)[C@@H]6NC(=O)[C@@H](NC4=O)c4cc(O)cc(c4)Oc4cc3ccc4O)c3ccc(O)c(c3)-c3c(O)cc(O)cc3[C@H](C(=O)O)NC5=O)nn2)C1=O (stereo not given in full) | ≥ 20 µM |
| CCCCSC1=C(SCCCC)C(=O)N(CCOCCOCCOCCOCc2cn(C3C(=O)N[C@@H]4Cc5ccc(c(Cl)c5)Oc5cc6cc(c5O)Oc5ccc(cc5Cl)[C@@H](O[C@@H]5O[C@H](CO)[C@@H](O)[C@H](O)[C@H]5NC(C)=O)[C@H]5NC(=O)[C@H](NC(O)[C@@H]6NC(=O)[C@@H](NC4=O)c4cc(O)cc(c4)Oc4cc3ccc4O)c3ccc(O)c(c3)-c3c(O)cc(O)cc3[C@H](C(=O)O)NC5=O)nn2)C1=O (stereo not given in full) | ≥ 100 µM |
| CCCCCCCCOCc1cn(CCOCCOCCOCCOCc2cn([C@H]3C(=O)N[C@@H]4Cc5ccc(c(Cl)c5)Oc5cc6cc(c5O)Oc5ccc(cc5Cl)[C@@H](O[C@@H]5O[C@H](CO)[C@@H](O)[C@H](O)[C@H]5NC(C)=O)[C@H]5NC(=O)[C@H](NC(O)[C@@H]6NC(=O)[C@@H](NC4=O)c4cc(O)cc(c4)Oc4cc3ccc4O)c3ccc(O)c(c3)-c3c(O)cc(O)cc3[C@H](C(=O)O)NC5=O)nn2)nn1 (stereo not given in full) | 100 µM |
| CC(=O)N[C@H]1[C@H](O[C@@H]2c3ccc(c(Cl)c3)Oc3cc4cc(c3O)Oc3ccc(cc3Cl)C[C@H]3NC(=O)[C@H](NS(=O)(=O)c5cccc6c(N(C)C)cccc56)c5ccc(O)c(c5)Oc5cc(O)cc(c5)[C@H](NC3=O)C(=O)N[C@H]4C(O)N[C@H]3C(=O)N[C@H]2C(=O)N[C@@H](C(=O)O)c2cc(O)cc(O)c2-c2cc3ccc2O)O[C@H](CO)[C@@H](O)[C@@H]1O (stereo not given in full) | ≥ 4 µM |
| CC(=O)Nc1ccc(S(=O)(=O)N[C@H]2C(=O)N[C@@H]3Cc4ccc(c(Cl)c4)Oc4cc5cc(c4O)Oc4ccc(cc4Cl)[C@@H](O[C@@H]4O[C@H](CO)[C@@H](O)[C@H](O)[C@H]4NC(C)=O)[C@H]4NC(=O)[C@H](NC(O)[C@@H]5NC(=O)[C@@H](NC3=O)c3cc(O)cc(c3)Oc3cc2ccc3O)c2ccc(O)c(c2)-c2c(O)cc(O)cc2[C@H](C(=O)O)NC4=O)cc1 (stereo not given in full) | ≥ 20 µM |
| CCCCCCS(=O)(=O)N[C@H]1C(=O)N[C@@H]2Cc3ccc(c(Cl)c3)Oc3cc4cc(c3O)Oc3ccc(cc3Cl)[C@@H](O[C@@H]3O[C@H](CO)[C@@H](O)[C@H](O)[C@H]3NC(C)=O)[C@H]3NC(=O)[C@H](NC(O)[C@@H]4NC(=O)[C@@H](NC2=O)c2cc(O)cc(c2)Oc2cc1ccc2O)c1ccc(O)c(c1)-c1c(O)cc(O)cc1[C@H](C(=O)O)NC3=O (stereo not given in full) | 20 µM |
| CCCCCCSC1=C(SCCCCCC)C(=O)N(Cc2cn(C3C(=O)N[C@@H]4Cc5ccc(c(Cl)c5)Oc5cc6cc(c5O)Oc5ccc(cc5Cl)[C@@H](O[C@@H]5O[C@H](CO)[C@@H](O)[C@H](O)[C@H]5NC(C)=O)[C@H]5NC(=O)[C@H](NC(O)[C@@H]6NC(=O)[C@@H](NC4=O)c4cc(O)cc(c4)Oc4cc3ccc4O)c3ccc(O)c(c3)-c3c(O)cc(O)cc3[C@H](C(=O)O)NC5=O)nn2)C1=O (stereo not given in full) | ≥ 20 µM |
| CCCCCCCCS(=O)(=O)N[C@H]1C(=O)N[C@@H]2Cc3ccc(c(Cl)c3)Oc3cc4cc(c3O)Oc3ccc(cc3Cl)[C@@H](O[C@@H]3O[C@H](CO)[C@@H](O)[C@H](O)[C@H]3NC(C)=O)[C@H]3NC(=O)[C@H](NC(O)[C@@H]4NC(=O)[C@@H](NC2=O)c2cc(O)cc(c2)Oc2cc1ccc2O)c1ccc(O)c(c1)-c1c(O)cc(O)cc1[C@H](C(=O)O)NC3=O (stereo not given in full) | ≥ 20 µM |
| CCCCSC1=C(SCCCC)C(=O)N([C@H]2C(=O)N[C@@H]3Cc4ccc(c(Cl)c4)Oc4cc5cc(c4O)Oc4ccc(cc4Cl)[C@@H](O[C@@H]4O[C@H](CO)[C@@H](O)[C@H](O)[C@H]4NC(C)=O)[C@H]4NC(=O)[C@H](NC(O)[C@@H]5NC(=O)[C@@H](NC3=O)c3cc(O)cc(c3)Oc3cc2ccc3O)c2ccc(O)c(c2)-c2c(O)cc(O)cc2[C@H](C(=O)O)NC4=O)C1=O (stereo not given in full) | ≥ 20 µM |

From here, focus on the item given below.
Req: # MCC at 120 h lookup, item CCCCCCSC1=C(SCCCCCC)C(=O)N([C@H]2C(=O)N[C@@H]3Cc4ccc(c(Cl)c4)Oc4cc5cc(c4O)Oc4ccc(cc4Cl)[C@@H](O[C@@H]4O[C@H](CO)[C@@H](O)[C@H](O)[C@H]4NC(C)=O)[C@H]4NC(=O)[C@H](NC(O)[C@@H]5NC(=O)[C@@H](NC3=O)c3cc(O)cc(c3)Oc3cc2ccc3O)c2ccc(O)c(c2)-c2c(O)cc(O)cc2[C@H](C(=O)O)NC4=O)C1=O (stereo not given in full)
Resp: ≥ 20 µM
